soluble fraction (log2) overview
# test-summary: soluble fraction after stress (log2 fold change); higher = more stays soluble; pooled small domains, quantitative proteomics;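 note: 20 min heating vs room temperature control held 20 min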
# study-conditions: stress: 75 degC
measured-metric: soluble fraction (log2)

1) HMNERLKQLRLSLNLNQEEFGKWLGISKSGVSDIESGRRKVTEQHIIMLSNHNISEKWLRTGEGEMFV ... -1.21
2) HMKWIEILKSKDGNYALLQDEKDTQFVVASGYNPDAAEDQKWGHGSYFIYWNNKENKAEMLMNAIDLFRYR ... -2.21
3) HMQNLISSDEAKNIALQHANLTDNQVTFIKVSKDYDDGIHIYEVEFHYNNREYNYDINAINGTILSYEQ ... -1.34
4) HMDDKLKKLEEVFEMQEGTLTPDMRLDELEEWDSMTRLSLIVMMEDDYGKKVKRSEVMNYTTVQDIVDSME ... -0.0532

====

# test-summary: soluble fraction after stress (log2 fold change); higher = more stays soluble; pooled small domains, quantitative proteomics
# study-conditions: stress: 75 degC
Form field: soluble fraction (log2) (one value per entry).
measured-metric: soluble fraction (log2)

1) HMPLDISDDSKAVLKLLKNDSNELNTVKSASGLSNKKWDKTIKELTKNKIVSVSKTEDGLYIHLI ... 0.438
2) HMETVRHFRLDWSQAADRLDKVLASLMNDVSRARIQEWIRLGAVSVNGEILTDVRAKVAGGDAIDVTPQTA ... -0.722
3) HMVRKGEINFDQLSVRARNALRNMNILFEKEILKLTEYDLKSIPNLGVKTTNELLSYIKRLQTNQKEE ... -1.47
4) HMSLAATLSPREIDTVRLIAVGSSNKEIARQLGIAETTVKIHVQHILRKLNLTSRVQVAVFANAEGII ... -0.931
5) HMKQLRVLGIVKAGSILKNSDGSIEFVIEDSGKSLLVKYKGVIPDIFKDGVEAVVEGDLRGSVFNADKLF ... -1.14
6) HMNNGAEIGAEIRSLRKARGLTLEDLAAKIGRSVGYISQVERGISPLTIPNLKAIAEVLGVGINWFFRGEA ... -1.15
7) HMSAEGPALADWVVRDAHSIGAKITNSVAQLLIDRVGHNQQLLHNELQKLALVQTDISAELVKTMSHY ... -0.643
8) HMTVSLLQTRQRLQALADLGHYKGDLGAAWGPDAIEALKKAQATLGVTVDGKWGPQTEDAIQVALKVQ ... -0.237
9) HMSTVIENVFKNFEVYEIKKGDTFYNIEKRFGVNRQELLVLNPELKEGLKLGMVLKIKEIIP ... -3.02
10) HMTDVIADMLTRIRNAASSKHQTVDIPSSNLKKEIAKILLEEGYIRDFIEIDDKKQGIIRITL ... -0.692
11) HMDALIWYVSRGQQKFGPFNYFGVLKALQDKSVFEFDYVWKEGTENWVRLAEHELFSQEKVRELLA ... -0.554
12) HMNDPNAPITENQLKAIHVLLDKLKVDDNLKHAYIADVLQLDNEPETLKTLTKAQGSMAIERMQLLKDN ... 0.736
13) HMTNKQEYAYQWLKSSIIENKIKPSTLLVERHLSEMLHISRTPVRTALMRLADEGFVVISPGRGMVVA ... -2.32
14) HMPTEAIVLQQIQIRQSPSGNSKSLQQILPGAKIKITSESSVKGWKQVSLDGGQKGWIPTAAIGL ... -0.499
15) HMPVQPMDPSIEHISALTGKQFQAFPGQDHRAHMTAHLNFMSTNIVRNNPAVMGAIQKNILEHISLMAQEQ ... 0.322

====

# test-summary: soluble fraction after stress (log2 fold change); higher = more stays soluble; pooled small domains, quantitative proteomics
# study-conditions: stress: 75 degC
Classify as follows. Reported soluble fraction (log2) greater than or equal to -2: t. Reported soluble fraction (log2) below: f.

1. HMQIAGLDDIDNRIIDLLLKNGRASYSEIGAAVGLSRTAAKNRIRALEASGIIRGYQAILDPQA ... t
2. HMKNLTEVEYSEFLESIAQDRVSKVQVDGLIIRGEMNDGQRFETVQPQVTDKALIDDMVNHRVDFSGARP ... t
3. HMNTISYTELIKQIDEGNVEKVEMTVGSTSVKVKLQGQEEEKKAIVPNTQAFVELIQEKTLEGNQIDLKQN ... t
4. HMKMNFNEEEQKLLSEANVLVETNKTYTDDEVKGFSNKIVEHIMTFSKTDIPKVKSKFDPILFKI ... t
5. HMIISPKKLEYRQRIINALGDRKMSLNELSKAMGYKGITTKLSFTVDDMIKSGVIEKVMVGAYAKLHIP ... f
6. HMVVQTELVRISITSLSGEDIRRLVQIKVVGATIEPFEGGGFLITGTAEQIAKAKDFLNSMSTEF ... f
7. HMQVSITGYLGGEKIGLFDDAKFKALAAKQGIAIDYRKAGSPAMMDADRKGMDYLFPSSRAAVEYGNAKGV ... t
8. HMLKDKLSDKDFDFYKNKIQIQLQGNPTELKELVRRFSSTEEQQILKTIDYMLDNGFLRIDEDNMIYWK ... t
9. HMIVVMARETSTDDLEAIRERIESRGMVAQINLGVERTVIGVMGSIPPDFKDEMELMNGVVEVVMISK ... f
10. HMSQTVKYVNTTSGLNMRTGPATSYAKITTIAYGQSVNVLSTSNGWSKINYSGSTGYVSSQYLQSKKPS ... f
11. HMKELLDRIFLHETMRRVSQDATITFSKKVYEVPQKFIGRQVTVQYDPEDLSRVYVKDLNFPEPVMVYPVQ ... t
12. HMKERVSWDERLERFAKHITENESLPYPSSKEYAWFEENKALYDAGELEPVRAQSFAFLLKIMRRMNL ... t
13. HMSKININTITESELKELPISTVKQKAIQDYLIDRGFISNIYDLLDIKEITSDDVSLLKKVVNVKLPY ... t

====

# test-summary: soluble fraction after stress (log2 fold change); higher = more stays soluble; pooled small domains, quantitative proteomics
# study-conditions: stress: 75 degC
soluble fraction (log2) listing for selected sequences.
measured-metric: soluble fraction (log2)

1) HMDVLNPGDKAVTTASWLNFRTGPGMQNKVASVLARNTTVNIIEKSNEWYKVSLANGSTGYVHGMYLSKIT ... -1.73
2) HMKAGRNTLARQMAILEVLQKDGRALVDDLAARFETTPQTIRKDLSALAEVNQISRFHGGAALVG ... -0.159
3) HMFWRKIDFYGLNLSTYRNIINIGSDYNYIYLDLGNIYKILNPITGKIIEEQDLVMNIDNINWSS ... 0.283
4) HMLLTLPEDIITMVRQGTLSAGHARVLAGLESDEMKMTLARQTITNEWSVRQLENAVALMRKS ... -0.906
5) HMASENISYSQFINQVKNSMVESVSIEADGKTISGKYKSGSSFVTYGLNDPKLVDDLLSNNVEIL ... 0.143
6) HMNDTSLIIDNLMLKLGNNIKNFSEIYSLLRKNLAEYGEEFIKSKVDYVLKNFNDNIEENLKKLLTE ... -0.394
7) HMQDPTAVISRVLEERKHQPGALLPILHGIQDALGYVPREAVAQIAQALNLSRAEIHGVVSFYHHFR ... -0.59

====

Listed sequences paired with reported soluble fraction (log2)
# test-summary: soluble fraction after stress (log2 fold change); higher = more stays soluble; pooled small domains, quantitative proteomics
# study-conditions: stress: 75 degC
measured-metric: soluble fraction (log2)

1. HMFEATGKITGTEVSFRRKPTTDSERILFFDINTEFRVIGINNGWYKGVYQGKTGYVRSDFVEIVGG ... -2.05
2. HMQDENAVTYLLEIKNADANDIASVLKTLKSPDADVVVYKTLNMIIFTGQGSEINGLVKVARQLDRK ... -2.04
3. HMAVGVFQKEDGYWGYRFSIIVDGKTIARRKFTDENGSKLRTKSEAVKARAAAMVAARMERVS ... -3.46
4. HMAQTSAELIIEYLKRNDGFMELTDKSPADEIYETFGISKKNFKMAVGSLYKNRVIEIGQNGIRLVE ... -0.426
5. HMLYETLKKGDQGTSVKTLQEKLKALGYLTGAADGKYGAGTETAVKSFQKAAGLTETGTADPETLSAVYAA ... 0.619
6. HMGHLTWTVTGIGHERRARTVAEQMSSVFGVLEARASSAGTVYLEFEREKIDEGGLEASLKRMGVTRVV ... -2.02
7. HMRHSLAAALTELRRLAALDLGDFFRFEYVSHTDSLGGKQQAYTEGIRVSFGVYLGVNKKDRLNVDPVV ... -3.42
8. HMSEMVIPEDFLAALETNPQAKAFYATLNRQNQYAVYHRLQTAKRPETRAKRIADFVAQLAAGKRF ... -1.03
9. HMRELPKRPEIRYAAGDRVFHKAFGNGLVKQVAQTAGGARVTVDFGEGKGVKTFAGDAPMIKI ... 0.391
10. HMIEFYTMQDMFYFKLTGDNTSRERREALGKILGIGYGNATQMVSRLNNYGISKEEFSKAIEEIEKQLEA ... -2.89
11. HMNQKKFIQADYEDRLFDHLAFEVKDMEKIISMMRREKFTITDEPFRLSPTGSLIAFVEDPDRTLIELIER ... -0.41
12. HMLKPKDLHLGDSVRVLSLNLKGTVSSLPDTKGFLFVQMGIMRSKLHISDLQLIDEPVITAP ... -2.23
13. HMGVPVTAPMPGKVLKVTVSVGAAVKNGDLVLVLEAMKMENEIFATANGVVKEIRSREGDTVNSGDVMMVI ... -2.19
14. HMKEYPEVITTSRLNVRTGPGTGYQRLGTLDQNLRVLVLTRQQGWAQIRGMLNGETVIGWVNDYYLQAID ... -2.54
15. HMFTEIMAERNALIQAIQQNLPPQHIQSILSKKNKFRLEDLTNEELRDVWQWILNQRQAQQHQQQ ... -0.0958
16. HMEDELVMERFDINELVKSVVNANELRATQKNLSITYDILDTPLYVWADEYKVEEVVTNYLS ... 0.00277
17. HMYLEARVKSTTPILSKPNELGKSLGKLYTNDFVALVSLHKNGLDSYYRTANGGYINAADVVIDRDV ... -1.49
18. HMGASLVIVPGAGFLRVSASSQTRLDVYSITGMRVRSVDFEPGTTEIELPAGFYIAGGRKFFV ... -2.42
19. HMHPFELNTVTEGQLKRLPFLSDLQIRELLEYRSRYGKMLTLYELKNVEAFDLETISLLVPFIYISEI ... -1.36
